The reported measurements were obtained from paper PMC10530161.

run_description: Mouse liver microsomal intrinsic clearance
Type: in vitro ADME
reported_metric: stability in mouse liver microsomes

Some compounds with recorded stability in mouse liver microsomes:
>>> df
                                   compound                      reported_metric              result
0  O=C(NC(=S)Nc1ccc(-c2nc3ccccc3o2)cc1)c1ccc2ccccc2c1 [compound 28]  stability in mouse liver microsomes  moderate stability
1  COc1cc2ccccc2cc1C(=O)NC(=S)Nc1ccc(-c2nc3ccccc3[nH]2)cc1 [compound 10]  stability in mouse liver microsomes  moderate stability
2  COc1cc2ccccc2cc1C(=O)NC(=S)Nc1ccc(-c2nccs2)cc1 [compound 16]  stability in mouse liver microsomes   moderately stable
3  COc1cc2ccccc2cc1C(=O)NC(=S)Nc1ccc(-c2ncc[nH]2)cc1 [compound 15]  stability in mouse liver microsomes   moderately stable
4  COc1cc2ccccc2cc1C(=O)NC(=S)Nc1ccc(-c2nnco2)cc1 [compound 18]  stability in mouse liver microsomes  moderate stability

Now, please, on to the next compound.
Value lookup for stability in mouse liver microsomes; key = COc1cc2ccccc2cc1C(=O)NC(=S)Nc1ccc(-c2ncon2)cc1 [compound 19]
moderate stability

====

run_description: Human liver microsomal intrinsic clearance
Assay type: in vitro ADME
condition_summary: human, liver microsomes, Intrinsinc Clearance hCLINT
# Lookup of reported CLint scaled keyed by entry
Express the result in mL/min/kg but write the number alone.

                               query_smiles  reported_metric  recorded_number
0  COc1cc2ccccc2cc1C(=O)NC(=S)Nc1ccc(-c2nccs2)cc1     CLint scaled              202
1  COc1cc2ccccc2cc1C(=O)NC(=S)Nc1ccc(-c2nc3ccccc3[nH]2)cc1     CLint scaled             27.8
2  COc1cc2ccccc2cc1C(=O)NC(=S)Nc1ccc(-c2ncc[nH]2)cc1     CLint scaled              125
3  O=C(NC(=S)Nc1ccc(-c2nc3ccccc3o2)cc1)c1ccc2ccccc2c1     CLint scaled             32.4
4  COc1cc2ccccc2cc1C(=O)NC(=O)Nc1ccc(-c2nc3ccccc3[nH]2)cc1     CLint scaled             67.8
5  O=C(NC(=O)c1ccc2ccccc2c1)Nc1ccc(-c2nc3ccccc3[nH]2)cc1     CLint scaled             86.3

Value lookup for CLint scaled; key = COc1cc2ccccc2cc1C(=O)NC(=O)Nc1ccc(-c2cscn2)cc1
92.8

====

run_description: Mouse liver microsomal intrinsic clearance
Type: in vitro ADME
condition_summary: mouse, liver microsomes, Intrinsinc Clearance mCLINT
reported_metric: CLint scaled (mL/min/kg)
Express the result in mL/min/kg but write the number alone.

>>> print(df.to_string())
                                   compound  recorded_number
0  COc1cc2ccccc2cc1C(=O)NC(=S)Nc1ccc(-c2ncon2)cc1 [compound 19]             46.2
1  COc1cc2ccccc2cc1C(=O)NC(=S)Nc1ccc(-c2nc3ccccc3[nH]2)cc1 [compound 10]             42.7

Value lookup for CLint scaled; key = O=C(NC(=O)c1ccc2ccccc2c1)Nc1ccc(-c2nc3ccccc3[nH]2)cc1 [compound 29]
365

====

run_description: Human liver microsomal intrinsic clearance
Format: in vitro ADME
reported_metric: stability in human liver microsomes

Some compounds with recorded stability in human liver microsomes:
>>> print(df.to_string())
                               query_smiles                  result
0  COc1cc2ccccc2cc1C(=O)NC(=S)Nc1ccc(-c2ncon2)cc1  regained the stability
1  COc1cc2ccccc2cc1C(=O)NC(=S)Nc1ccc(-c2nc3ccccc3[nH]2)cc1      moderate stability
2  COc1cc2ccccc2cc1C(=O)NC(=S)Nc1ccc(-c2nccs2)cc1             instability
3  COc1cc2ccccc2cc1C(=O)NC(=S)Nc1ccc(-c2ncc[nH]2)cc1             instability
4  COc1cc2ccccc2cc1C(=O)NC(=S)Nc1ccc(-c2nnco2)cc1  regained the stability

Now, please, on to the next compound.
Value lookup for stability in human liver microsomes; key = O=C(NC(=S)Nc1ccc(-c2nc3ccccc3o2)cc1)c1ccc2ccccc2c1
moderate stability
